B1: S. cerevisiae Abp1 (full length; SH3 domain 535-592 mutated) / Hua2 (parent)
chain 1: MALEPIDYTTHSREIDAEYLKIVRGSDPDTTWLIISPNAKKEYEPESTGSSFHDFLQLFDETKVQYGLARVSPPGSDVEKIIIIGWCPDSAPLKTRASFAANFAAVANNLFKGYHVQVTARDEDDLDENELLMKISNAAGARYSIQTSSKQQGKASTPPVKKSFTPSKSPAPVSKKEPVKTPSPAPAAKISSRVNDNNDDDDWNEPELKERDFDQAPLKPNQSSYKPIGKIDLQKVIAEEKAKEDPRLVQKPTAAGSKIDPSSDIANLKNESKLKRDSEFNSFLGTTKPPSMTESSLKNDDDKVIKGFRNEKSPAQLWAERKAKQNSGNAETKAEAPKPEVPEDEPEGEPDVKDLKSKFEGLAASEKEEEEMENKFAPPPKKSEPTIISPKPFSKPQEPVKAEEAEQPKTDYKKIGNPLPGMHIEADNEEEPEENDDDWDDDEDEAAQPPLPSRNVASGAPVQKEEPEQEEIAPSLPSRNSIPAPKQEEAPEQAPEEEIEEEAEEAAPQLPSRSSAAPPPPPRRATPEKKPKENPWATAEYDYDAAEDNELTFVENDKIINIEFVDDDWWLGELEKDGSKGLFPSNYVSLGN
chain 2: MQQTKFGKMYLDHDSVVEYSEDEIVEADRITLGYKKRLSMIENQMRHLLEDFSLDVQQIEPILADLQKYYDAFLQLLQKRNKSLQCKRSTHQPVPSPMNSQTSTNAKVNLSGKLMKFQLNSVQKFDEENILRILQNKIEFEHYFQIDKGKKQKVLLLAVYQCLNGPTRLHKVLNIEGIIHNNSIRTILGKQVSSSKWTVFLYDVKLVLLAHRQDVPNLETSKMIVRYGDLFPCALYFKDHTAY

- Variants of: B1
- assayProcedure: DHFR protein-fragment complementation in yeast (Abp1-DHFR F[1,2] x partner-DHFR F[3]), deep mutational scanning, second methotrexate selection vs reference
- conditionNotes: with Hua2; S. cerevisiae, DHFR-PCA selection in liquid with methotrexate at 30 C, two 72 h selections (the score uses the second); reference = the pre-selection culture; not an affinity; scale: DMS score: mean over two replicates of log2(f_test/f_ref + 0.5)/ln 2, minus the synonymous-codon median
Measured screen value accompanies every entry in the list below.
quantityMeasured: screen value

1. chain 1 L551V :: -1.51
2. chain 1 L574S :: -1.23
3. chain 1 G581V :: -2.59
4. chain 1 D557G :: -2.9
5. chain 1 K576L :: -1.83
6. chain 1 Y587W :: -1.66
7. chain 1 T552Y :: -2.8
8. chain 1 A545M :: -1.83
9. chain 1 W536L :: -1.66
10. chain 1 F564T :: -2.07
11. chain 1 A537V :: -2.01
12. chain 1 E563G :: -1.92
13. chain 1 S579A :: -1.48
14. chain 1 K558W :: -2.78
15. chain 1 K576D :: -1.75
16. chain 1 N561M :: -2.43
17. chain 1 G581S :: -2.77
18. chain 1 E547M :: -1.68
19. chain 1 L590E :: -2.84
20. chain 1 S579P :: -2.21
21. chain 1 G578F :: -2.12
22. chain 1 D542L :: -1.84
23. chain 1 W536K :: -1.76
24. chain 1 F553V :: -1.32
25. chain 1 D567Y :: -1.92
26. chain 1 W569E :: -2.94
27. chain 1 D542V :: -1.37
28. chain 1 W536D :: -1.97
29. chain 1 N556W :: -1.22
30. chain 1 I562S :: -2.46
31. chain 1 L574Q :: -1.79
32. chain 1 L551P :: -1.38
33. chain 1 I560A :: -1.35
34. chain 1 E573A :: -1.17
35. chain 1 W536G :: -2.23
36. chain 1 E547I :: -2.45
37. chain 1 K576Y :: -1.6
38. chain 1 T538D :: -2.65
39. chain 1 W536I :: -1.58
40. chain 1 W569G :: -2.06
41. chain 1 E573D :: -1.16
42. chain 1 W536N :: -1.23
43. chain 1 T552M :: -2.22
44. chain 1 D577L :: -2.96
45. chain 1 F564C :: -1.62
46. chain 1 V565G :: -1.37
47. chain 1 L551Q :: -2.06
48. chain 1 N556I :: -2.52
49. chain 1 T552F :: -2.87
50. chain 1 E563M :: -1.5
51. chain 1 D577Q :: -2.41
52. chain 1 P584R :: -2.94
53. chain 1 T538G :: -2.9
54. chain 1 V588I :: -2.59
55. chain 1 D542I :: -2.41
56. chain 1 T552C :: -1.73
57. chain 1 K576W :: -2.17
58. chain 1 F583I :: -1.72
59. chain 1 G581D :: -2.22
60. chain 1 G572E :: -2.36
61. chain 1 Y587N :: -1.43
62. chain 1 A537T :: -1.87
63. chain 1 L590C :: -2.24
64. chain 1 D557N :: -1.63
65. chain 1 W570L :: -2.25
66. chain 1 N561S :: -2.28
67. chain 1 N561Y :: -2.5
68. chain 1 L582Q :: -2.88
69. chain 1 D542Y :: -1.41
70. chain 1 K580D :: -2.63
71. chain 1 F564D :: -2.53
72. chain 1 D557K :: -2.91
73. chain 1 E563F :: -1.96
74. chain 1 G578C :: -1.66
75. chain 1 G578V :: -2.83
76. chain 1 E540F :: -2.97
77. chain 1 W570S :: -2.8
78. chain 1 E550G :: -2.84
79. chain 1 W536R :: -1.3
80. chain 1 A545F :: -2.84
81. chain 1 W569C :: -1.49
82. chain 1 V588W :: -2.8
83. chain 1 I559F :: -1.21
84. chain 1 K576P :: -2.88
85. chain 1 V588T :: -2.13
86. chain 1 N586Y :: -2.41
87. chain 1 N561R :: -2.12
88. chain 1 E573R :: -1.65
89. chain 1 E547C :: -2.2
90. chain 1 L582C :: -2.82
91. chain 1 D577H :: -2.21
